# target_or_system: Tek (Homo sapiens, UniProt Q02763)
# Construct: Kinases are expressed as either kinase domains or full length constructs; made in house
# Sequence (Q02763 23-1124, species assumed): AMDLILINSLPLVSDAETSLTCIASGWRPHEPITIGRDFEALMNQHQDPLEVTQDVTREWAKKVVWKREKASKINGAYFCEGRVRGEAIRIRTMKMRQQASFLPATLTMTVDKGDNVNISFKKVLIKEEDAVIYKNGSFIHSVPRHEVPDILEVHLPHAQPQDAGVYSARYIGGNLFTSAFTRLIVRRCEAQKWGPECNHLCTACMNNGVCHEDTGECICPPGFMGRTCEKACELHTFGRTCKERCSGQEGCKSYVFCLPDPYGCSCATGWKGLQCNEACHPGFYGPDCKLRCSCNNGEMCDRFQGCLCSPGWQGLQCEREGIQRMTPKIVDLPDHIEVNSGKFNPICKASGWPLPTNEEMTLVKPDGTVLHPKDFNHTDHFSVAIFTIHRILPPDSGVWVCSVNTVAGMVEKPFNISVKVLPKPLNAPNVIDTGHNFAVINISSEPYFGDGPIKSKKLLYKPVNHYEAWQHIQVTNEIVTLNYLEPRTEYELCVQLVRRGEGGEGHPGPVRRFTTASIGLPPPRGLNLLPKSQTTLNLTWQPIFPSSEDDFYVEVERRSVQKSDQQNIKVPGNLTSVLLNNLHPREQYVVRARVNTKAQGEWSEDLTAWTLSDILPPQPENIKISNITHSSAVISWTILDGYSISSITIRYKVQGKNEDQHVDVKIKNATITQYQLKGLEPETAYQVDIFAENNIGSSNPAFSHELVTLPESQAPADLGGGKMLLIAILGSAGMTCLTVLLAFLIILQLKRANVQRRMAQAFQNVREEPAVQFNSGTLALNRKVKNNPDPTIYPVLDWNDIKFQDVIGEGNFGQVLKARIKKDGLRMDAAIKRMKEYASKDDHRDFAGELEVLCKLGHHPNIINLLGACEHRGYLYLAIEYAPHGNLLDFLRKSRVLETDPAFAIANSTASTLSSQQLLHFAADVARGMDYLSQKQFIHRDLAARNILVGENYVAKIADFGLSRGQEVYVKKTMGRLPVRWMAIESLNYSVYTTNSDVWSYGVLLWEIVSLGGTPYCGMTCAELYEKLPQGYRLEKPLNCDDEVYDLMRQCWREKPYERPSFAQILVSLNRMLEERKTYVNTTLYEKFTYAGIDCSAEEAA
# method_description: Kinase inhibition assay (33P transfer), Tek
# Format: biochemical
# condition_notes: read-out: Tek-1
pIC50: −log10 of the molar value.
We begin with a simple list: items and their reported pIC50.

INSERT INTO assay_data (compound, target_or_system, result) VALUES
  ('COc1cc(C)c(Nc2ncnc(-n3c(N)nc4ccccc43)n2)cc1OC [Compound 524]', 'Tek (Homo sapiens, UniProt Q02763)', '< 4.92'),
  ('COc1cc(Nc2ncnc(-c3c(O)[nH]c4ccc(Cl)cc34)n2)cc(OC)c1OC [Compound 517]', 'Tek (Homo sapiens, UniProt Q02763)', '5.09 to 5.25'),
  ('Nc1nc2ccccc2n1-c1ncnc(N2C(=O)c3ccccc3C2=O)n1 [Compound 653]', 'Tek (Homo sapiens, UniProt Q02763)', '< 4.90'),
  ('COc1ccc(Nc2ncnc(Nc3ccccc3C)n2)cc1OC [Compound 111]', 'Tek (Homo sapiens, UniProt Q02763)', '< 4.87'),
  ('COc1ccc(Nc2ncnc(-n3c(=O)[nH]c4ccccc43)n2)cc1OC [Compound 494]', 'Tek (Homo sapiens, UniProt Q02763)', '< 4.91'),
  ('COc1cc(Nc2ncnc(Nc3ccc(Br)cc3F)n2)cc(OC)c1OC [Compound 41]', 'Tek (Homo sapiens, UniProt Q02763)', '5.00 to 5.11'),
  ('COc1cc(Nc2ncnc(-n3nc(-c4ccccc4)cc3N)n2)cc(OC)c1OC [Compound 520]', 'Tek (Homo sapiens, UniProt Q02763)', '< 4.97'),
  ('CC(C)(C)OC(=O)NCc1cccc(Nc2ncnc(Nc3cc(-c4ccccc4)n[nH]3)n2)c1 [Compound 986]', 'Tek (Homo sapiens, UniProt Q02763)', '5.01 to 5.12'),
  ('COc1cc(Nc2ncnc(-c3cccnc3NCCCN)n2)cc(OC)c1OC [Compound 1078]', 'Tek (Homo sapiens, UniProt Q02763)', '< 4.96'),
  ('COc1cc(Nc2ncnc(-n3c(NCc4ccncc4)nc4ccccc43)n2)cc(OC)c1OC [Compound 413]', 'Tek (Homo sapiens, UniProt Q02763)', '< 5.03');

Shifting focus to the compound that follows.
QUERY: Could you tell me which pIC50 is on file for COc1cc(Nc2ncnc(-n3c(N)nc4ccccc43)n2)ccc1OCCN1CCOCC1 [Compound 650] ?
RESULT: 5.01 to 5.12

###

Each entry below carries its reported IC50.
# target_or_system: IGFR-1 (Homo sapiens)
# Construct: Kinases are expressed as either kinase domains or full length constructs; made in house
# Sequence (P08069 31-1367): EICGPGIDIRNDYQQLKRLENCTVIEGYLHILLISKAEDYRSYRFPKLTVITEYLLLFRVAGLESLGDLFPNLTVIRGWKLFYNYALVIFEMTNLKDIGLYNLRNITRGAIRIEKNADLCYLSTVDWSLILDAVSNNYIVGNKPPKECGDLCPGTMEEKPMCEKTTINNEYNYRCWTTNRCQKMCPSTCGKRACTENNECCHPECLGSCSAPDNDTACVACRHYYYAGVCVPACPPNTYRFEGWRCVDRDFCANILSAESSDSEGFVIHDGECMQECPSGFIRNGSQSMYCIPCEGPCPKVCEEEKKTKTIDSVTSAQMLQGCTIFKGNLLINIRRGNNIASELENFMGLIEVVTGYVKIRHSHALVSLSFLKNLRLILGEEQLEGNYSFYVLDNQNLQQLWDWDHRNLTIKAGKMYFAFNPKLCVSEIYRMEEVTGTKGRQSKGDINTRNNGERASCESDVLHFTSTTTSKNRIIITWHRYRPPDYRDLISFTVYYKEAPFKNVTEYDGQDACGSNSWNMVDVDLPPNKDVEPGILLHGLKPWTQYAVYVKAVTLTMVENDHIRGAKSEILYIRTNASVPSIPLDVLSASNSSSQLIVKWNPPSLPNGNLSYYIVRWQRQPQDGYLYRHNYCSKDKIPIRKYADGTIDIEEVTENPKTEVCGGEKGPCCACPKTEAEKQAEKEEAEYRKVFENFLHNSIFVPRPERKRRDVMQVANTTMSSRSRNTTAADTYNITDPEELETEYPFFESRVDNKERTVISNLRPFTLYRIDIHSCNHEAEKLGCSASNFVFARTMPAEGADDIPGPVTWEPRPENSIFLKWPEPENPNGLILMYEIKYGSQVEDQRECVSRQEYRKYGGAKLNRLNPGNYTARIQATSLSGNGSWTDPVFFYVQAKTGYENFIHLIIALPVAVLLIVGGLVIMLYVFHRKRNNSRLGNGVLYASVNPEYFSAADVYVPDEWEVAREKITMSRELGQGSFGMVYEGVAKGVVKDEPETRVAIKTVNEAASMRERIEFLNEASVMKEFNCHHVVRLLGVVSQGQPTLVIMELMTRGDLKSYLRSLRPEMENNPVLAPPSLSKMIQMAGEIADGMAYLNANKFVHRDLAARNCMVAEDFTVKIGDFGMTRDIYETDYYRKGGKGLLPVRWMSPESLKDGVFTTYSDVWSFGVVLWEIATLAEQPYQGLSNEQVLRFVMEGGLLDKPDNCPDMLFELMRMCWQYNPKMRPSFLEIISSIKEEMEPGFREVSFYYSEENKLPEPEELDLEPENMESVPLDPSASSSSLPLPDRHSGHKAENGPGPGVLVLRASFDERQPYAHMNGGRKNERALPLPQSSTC
# method_description: Kinase inhibition assay (33P transfer), IGFR-1
# Type: biochemical
# condition_notes: Table 2, kinase inhibition class

Observe how each entry below is paired with its result.
INSERT INTO results (cpd_smiles, observable, result) VALUES
  ('COc1cc(Nc2ncnc(-n3c(NC(C)=O)nc4ccccc43)n2)cc(OC)c1OC', 'IC50', '< 0.919 µM'),
  ('COc1cc(Nc2ncnc(-n3c(Nc4ccc(C#N)cc4)nc4ccccc43)n2)cc(OC)c1OC', 'IC50', '> 9.1 µM'),
  ('COc1cc(Nc2ncnc(-n3ccnc3)n2)cc(OC)c1OC', 'IC50', '> 13.7 µM');

QUERY: If you can, please state the reported IC50 value of COc1cc(Nc2ncnc(Nc3cc(-c4cccs4)n[nH]3)n2)cc(OC)c1OC .
RESULT: < 0.94 µM

QUERY: // next record COc1cccc(Nc2ncnc(Nc3cc(OC)c(OC)c(OC)c3)n2)c1
RESULT: < 1.04 µM

QUERY: Next compound: COc1cc(Nc2ncnc(-n3ccc4ccc(Cl)cc43)n2)cc(OC)c1OC
RESULT: < 0.971 µM

QUERY: Same for COc1cc(Nc2ncnc(Nc3ccccc3C)n2)cc(OC)c1OC
RESULT: 9.53 to 12.2 µM

QUERY: Now consider NC(=O)c1ccc(Nc2ncnc(Nc3cc(-c4ccco4)n[nH]3)n2)cc1 and answer again.
RESULT: 1.1 to 6.62 µM

###

# target_or_system: EGFR (Homo sapiens, UniProt P00533)
# Construct: Kinases are expressed as either kinase domains or full length constructs; made in house
# Sequence (P00533 25-1210, species assumed): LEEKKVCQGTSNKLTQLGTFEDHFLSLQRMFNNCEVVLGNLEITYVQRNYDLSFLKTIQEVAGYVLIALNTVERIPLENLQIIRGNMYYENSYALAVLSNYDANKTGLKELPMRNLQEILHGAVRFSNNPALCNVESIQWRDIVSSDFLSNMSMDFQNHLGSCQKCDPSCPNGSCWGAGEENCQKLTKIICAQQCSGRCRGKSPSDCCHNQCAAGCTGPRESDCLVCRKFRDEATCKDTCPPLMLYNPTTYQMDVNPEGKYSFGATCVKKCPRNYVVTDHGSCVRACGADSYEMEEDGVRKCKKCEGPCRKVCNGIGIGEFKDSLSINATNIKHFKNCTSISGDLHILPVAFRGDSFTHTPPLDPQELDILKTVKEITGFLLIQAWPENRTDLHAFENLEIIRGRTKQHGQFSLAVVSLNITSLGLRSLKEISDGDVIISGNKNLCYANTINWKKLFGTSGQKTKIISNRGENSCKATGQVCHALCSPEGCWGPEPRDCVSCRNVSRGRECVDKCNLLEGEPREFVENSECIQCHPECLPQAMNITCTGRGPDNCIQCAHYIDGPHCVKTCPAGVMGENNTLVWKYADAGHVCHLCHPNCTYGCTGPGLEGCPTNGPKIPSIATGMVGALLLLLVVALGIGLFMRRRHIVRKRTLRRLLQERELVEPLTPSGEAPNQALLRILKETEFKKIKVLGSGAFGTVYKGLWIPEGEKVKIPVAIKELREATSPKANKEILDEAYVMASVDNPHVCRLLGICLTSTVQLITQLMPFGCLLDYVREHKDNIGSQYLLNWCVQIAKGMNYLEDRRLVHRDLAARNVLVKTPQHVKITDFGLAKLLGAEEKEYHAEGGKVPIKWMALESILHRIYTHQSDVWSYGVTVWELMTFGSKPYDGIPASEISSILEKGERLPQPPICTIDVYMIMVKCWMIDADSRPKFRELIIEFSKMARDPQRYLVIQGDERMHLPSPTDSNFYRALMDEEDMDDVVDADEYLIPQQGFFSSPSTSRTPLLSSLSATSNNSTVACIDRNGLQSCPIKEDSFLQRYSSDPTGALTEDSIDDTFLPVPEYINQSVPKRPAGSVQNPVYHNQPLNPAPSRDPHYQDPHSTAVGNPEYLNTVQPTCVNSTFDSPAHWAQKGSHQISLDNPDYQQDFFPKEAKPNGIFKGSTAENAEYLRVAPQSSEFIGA
# method_description: Kinase inhibition assay (33P transfer), EGFR
# Assay type: biochemical
# condition_notes: Table 2, kinase inhibition class; read-out: EGFR-1
pIC50: −log10 of the molar value.
List of pIC50 values.

Worked cases, pIC50 given:
INSERT INTO assay_data (molecule, result) VALUES
  ('COc1cc(Nc2ncnc(-n3c(NC(C)C)nc4ccccc43)n2)cc(OC)c1OC', '< 4.99'),
  ('Cc1cccc(Nc2ncnc(Nc3ccc4c(cnn4Cc4ccccc4)c3)n2)c1', '> 6.01'),
  ('O=c1[nH]c2ccccc2n1-c1ncnc(Nc2ccc(NS(=O)(=O)c3ccc([N+](=O)[O-])cc3)cc2)n1', '5.32 to 6.10'),
  ('COCCCNc1ncnc(N2CCCc3cc(C)ccc32)n1', '4.84 to 4.95'),
  ('COc1ccc(Nc2ncnc(Nc3cc(OC)c(OC)c(OC)c3)n2)cc1OCCN1CCOCC1', '5.06 to 5.17');

QUERY: Looking for the measured pIC50 of O=c1[nH]c2ccccc2n1-c1ncnc(Nc2ccc(F)c(Cl)c2)n1 , can you help?
RESULT: < 4.90

QUERY: Try this molecule too: COc1cc(Nc2ncnc(NC3CC3c3ccccc3)n2)cc(OC)c1OC (stereo not drawn)
RESULT: > 5.99

QUERY: Next entry: COc1cc(Nc2ncnc(N3CCOCC3)n2)cc(OC)c1OC
RESULT: < 4.89

QUERY: Follow-up item: COCCOc1ccc(Nc2ncnc(-n3c(N)nc4ccccc43)n2)cc1OC
RESULT: 4.96 to 5.07

QUERY: Would you mind doing CC1CCc2ccccc2N1c1ncnc(N2c3ccccc3CCC2C)n1 (stereo not drawn) as well?
RESULT: 5.03 to 5.19

###

# target_or_system: EGFR (Homo sapiens, UniProt P00533)
# Construct: Kinases are expressed as either kinase domains or full length constructs; made in house
# method_description: Kinase inhibition assay (33P transfer), EGFR
# Type: biochemical
# condition_notes: Table 2, kinase inhibition class; read-out: EGFR-1
pIC50: −log10 of the molar value.
observable: pIC50

INSERT INTO results (compound, target_or_system, result) VALUES
  ('O=C1OCc2ccc(Nc3ncnc(Nc4cc(-c5ccco5)n[nH]4)n3)cc21 [Compound 364]', 'EGFR (Homo sapiens, UniProt P00533)', '5.19 to 5.97'),
  ('Oc1ccc(Nc2ncnc(Nc3ccc(OCc4ccccc4)cc3)n2)cc1 [Compound 158]', 'EGFR (Homo sapiens, UniProt P00533)', '5.21 to 5.98'),
  ('COc1cc(Nc2ncnc(Nc3ccc4c(cnn4Cc4ccccc4)c3)n2)cc(OC)c1OC [Compound 177]', 'EGFR (Homo sapiens, UniProt P00533)', '> 6.08'),
  ('COc1cc(Nc2ncnc(-n3c(Nc4ccc(N(C)C)cc4)nc4ccccc43)n2)cc(OC)c1OC [Compound 1051]', 'EGFR (Homo sapiens, UniProt P00533)', '< 5.06'),
  ('COc1cccc(Nc2ncnc(N(C)c3cccc(Cl)c3)n2)c1 [Compound 741]', 'EGFR (Homo sapiens, UniProt P00533)', '> 5.93');

QUERY: Name the reported pIC50 value associated with the compound Cc1cccc(Nc2ncnc(N(C)c3cccc(Br)c3)n2)c1 [Compound 666]
RESULT: > 5.97

QUERY: Thanks! And CN(c1cccc(Cl)c1)c1ncnc(Nc2ccc(Cl)c(Cl)c2)n1 [Compound 708] ?
RESULT: < 4.93

QUERY: Okay, and COc1ccc2c(c1)CCCN2c1ncnc(Nc2cc(OC)c(OC)c(OC)c2)n1 [Compound 631] ?
RESULT: 5.25 to 6.02

QUERY: Further, for Cc1cccc(Nc2ncnc(Nc3cccc(Br)c3)n2)c1 [Compound 109] ?
RESULT: > 5.95

###

Each entry below carries its recorded IC50.
# target_or_system: PDGFRB (Homo sapiens)
# Construct: Kinases are expressed as either kinase domains or full length constructs; made in house
# Sequence (P09619 33-1106, species assumed): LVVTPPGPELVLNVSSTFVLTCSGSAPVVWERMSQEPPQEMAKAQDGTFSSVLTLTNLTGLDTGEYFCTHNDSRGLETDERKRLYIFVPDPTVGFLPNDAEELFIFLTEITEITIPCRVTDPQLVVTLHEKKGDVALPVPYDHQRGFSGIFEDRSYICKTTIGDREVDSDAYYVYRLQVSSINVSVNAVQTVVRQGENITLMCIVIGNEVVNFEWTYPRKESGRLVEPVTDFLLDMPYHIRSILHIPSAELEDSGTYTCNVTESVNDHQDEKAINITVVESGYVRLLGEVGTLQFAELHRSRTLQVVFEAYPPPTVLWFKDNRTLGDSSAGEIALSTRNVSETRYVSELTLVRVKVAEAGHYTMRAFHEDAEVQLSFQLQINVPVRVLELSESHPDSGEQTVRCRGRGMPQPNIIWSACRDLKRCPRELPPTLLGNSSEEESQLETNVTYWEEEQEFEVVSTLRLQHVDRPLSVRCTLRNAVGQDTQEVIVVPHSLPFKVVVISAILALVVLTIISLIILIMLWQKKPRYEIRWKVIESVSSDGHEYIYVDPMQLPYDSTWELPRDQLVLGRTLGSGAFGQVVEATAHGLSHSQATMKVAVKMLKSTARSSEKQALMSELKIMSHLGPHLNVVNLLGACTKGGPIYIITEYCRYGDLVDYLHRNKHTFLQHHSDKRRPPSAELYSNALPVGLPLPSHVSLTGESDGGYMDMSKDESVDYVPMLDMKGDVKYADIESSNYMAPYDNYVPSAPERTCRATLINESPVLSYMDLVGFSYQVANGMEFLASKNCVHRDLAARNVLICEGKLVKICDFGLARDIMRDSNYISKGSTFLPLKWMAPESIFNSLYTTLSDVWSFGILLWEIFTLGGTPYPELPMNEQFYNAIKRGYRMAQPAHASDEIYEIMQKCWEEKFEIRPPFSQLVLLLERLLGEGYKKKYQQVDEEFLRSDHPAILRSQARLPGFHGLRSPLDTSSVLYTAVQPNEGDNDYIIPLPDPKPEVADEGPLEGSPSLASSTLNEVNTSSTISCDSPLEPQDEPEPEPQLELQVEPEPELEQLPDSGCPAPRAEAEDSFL
# method_description: Kinase inhibition assay (33P transfer), PDGFRB
# Assay type: biochemical
# condition_notes: read-out: PDGFRB-1

INSERT INTO measurements (compound, result) VALUES
  ('COc1ccc(Nc2ncnc(N(C)CCc3ccccn3)n2)cc1OC [Compound 869]', '1.09 to 6.55 µM'),
  ('COc1cc(Nc2ncnc(-n3c(Nc4cccc5cccnc45)nc4ccccc43)n2)cc(OC)c1OC [Compound 588]', '0.768 to 4.61 µM');

Next compound, please.
QUERY: Reported IC50 for COC(=O)Cc1cccc(Nc2ncnc(-n3c(NCc4ccc(OC)cc4)nc4ccccc43)n2)c1 [Compound 548] : what is it?
RESULT: > 9.08 µM

Data credit: patent US7074789B2
